This listing pairs compounds with measured additive concentration at 50 % signal reduction.
- target_entity: DR1 (Homo sapiens, UniProt P01903+P01911, A100R/D57E/F55L/F60I/F76Y/I96L/L162R/M171V/P40L/Q125E/R42F/V115G/Y59C)
- protocol_text: Effects of additives on the refolding of DR1, spun column assay
- Format: biochemical
- assay_context: refolding buffer pH 8 without glycerol, 3 nM 125I YHA306-318, 80 nM DR1
readout_type: additive concentration at 50 % signal reduction (Vol %)

# compound, value_reported
data = [
    ("CCC(C)O (centres unmarked)", 2.5),
    ("CCCCCCCCCCCC(=O)N(C)CC(=O)O", 0.01),
    ("CC(C)O", 5),
]

----------
- target_entity: DR4 (Homo sapiens, UniProt P01903+P01911)
- Construct: made in house
- protocol_text: ELISA-based peptide-MHC class II binding assay, DR4
Where no end group is shown, it is not given here.

# monomer_sequence, target_entity, EC50, µM
records = [
    ("YKYVKQNTLKLAT [HA306-318]", "DR4 (Homo sapiens, UniProt P01903+P01911)", 0.0431),
]

----------
- target_entity: DR4 (DRA*0101/DRB1*0401) (Homo sapiens, UniProt P01903+P01911, A100K/A169T/F76Y/I96L/K127E/L162R/M171V/N62H/P40V/Q125Y/R42H/S133A/S149N/S66Y/V115G/V209L/W38E)
- Construct: DRA*01011-181LZFos; DRB1*04011-190LZJunBSP; made in house
- protocol_text: Direct LOCI peptide-MHC-II binding assay, DR4
- assay_context: pH 6-7.5; 48 h 18°C; read-out: DR4 affinity
Where no end group is shown, it is not given here.

# monomer_sequence, Kd
rows = [
    ("YKYVKQNTLKLAT [HA306-318]", "8 nM"),
    ("FLIDLAFLI [Pox.o42.con A2]", "> 5000 nM"),
    ("RMIAISAKV [Pox.o42.con.im. A2]", "> 5000 nM"),
]

----------
- target_entity: DR2a (DRA*0101/DRB5*0101) (Homo sapiens, UniProt P01903+Q30154)
- Construct: DRA*01011-181LZFos; DRB5*01011-190LZJunBSP; made in house
- protocol_text: Competitive LOCI peptide-MHC-II binding assay, DR2a
- assay_context: DR2a Komp IC50 (nM)
Where no end group is shown, it is not given here.

# monomer_sequence, unit_name, censoring_sign, IC50
data = [
    ("PIVQNIQGQMVHQ [HIV]", "nM", "=", 852),
    ("IQMLKNGKKIPKVEMS [Murine β2m]", "nM", "=", 3),
    ("YLFFYRKSV [TERT572Y]", "nM", ">", 5000),
    ("YILLKKILSSRFNQM [Plasmodium Falciparum]", "nM", "=", 2),
    ("FLYGALLLA [MBP]", "nM", ">", 5000),
    ("GVTYEIDLTNKN [Mycobact leprea]", "nM", ">", 5000),
    ("HHHHHHIEGRFAALWFRNHFVFGGGTK [6xH Lambda 2(315)]", "nM", "=", 20),
]
